ASSAYED_TARGET: 5-HT2C receptor (Homo sapiens)
Construct: host or cells: U2OS
Sequence (P28335 33-458): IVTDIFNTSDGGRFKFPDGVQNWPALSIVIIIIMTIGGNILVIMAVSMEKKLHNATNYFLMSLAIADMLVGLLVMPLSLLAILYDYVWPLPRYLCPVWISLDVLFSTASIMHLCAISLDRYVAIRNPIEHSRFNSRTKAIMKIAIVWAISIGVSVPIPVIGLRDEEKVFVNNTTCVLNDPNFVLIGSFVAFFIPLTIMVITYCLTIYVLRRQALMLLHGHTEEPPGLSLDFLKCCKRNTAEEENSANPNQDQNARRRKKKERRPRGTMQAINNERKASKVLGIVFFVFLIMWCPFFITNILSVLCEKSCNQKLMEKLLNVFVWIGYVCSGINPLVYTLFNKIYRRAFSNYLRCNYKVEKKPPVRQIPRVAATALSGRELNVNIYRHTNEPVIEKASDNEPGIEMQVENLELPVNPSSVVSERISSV
Sequence (P32121 whole entry partner): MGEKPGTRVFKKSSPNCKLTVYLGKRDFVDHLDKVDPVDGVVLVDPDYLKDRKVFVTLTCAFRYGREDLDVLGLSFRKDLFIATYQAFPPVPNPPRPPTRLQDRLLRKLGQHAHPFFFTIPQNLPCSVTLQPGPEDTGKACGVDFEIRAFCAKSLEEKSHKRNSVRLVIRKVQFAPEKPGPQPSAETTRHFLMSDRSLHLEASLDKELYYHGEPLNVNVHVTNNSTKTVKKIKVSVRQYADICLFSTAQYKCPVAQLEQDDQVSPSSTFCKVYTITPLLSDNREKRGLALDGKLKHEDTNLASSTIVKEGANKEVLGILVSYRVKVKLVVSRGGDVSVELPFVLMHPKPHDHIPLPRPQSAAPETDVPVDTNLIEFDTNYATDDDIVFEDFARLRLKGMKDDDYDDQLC
EXPERIMENT_DESCRIPTION: Human 5-HT2C functional assay (beta-arrestin2 recruitment, U2OS_HTR2C_β-Arrestin cells)
Format: cell-based
TEST_CONDITIONS: relative efficacy vs response to 10 µM 5-HT or maximal effect of 5-HT (100%); compounds used as acid addition salts
Description: The functional activity of compounds of formula I was assayed by incubation with U2OS_HTR2C_β-Arrestin cells (DiscoverX, 93-0289C3) to induce beta-arrestin2 recruitment to the 5-HT2C receptor. […] The enzyme complementation results in enzyme activity, which is measured following the termination of the agonist incubation using DiscoveRx's detection reagent, which contains a chemiluminescent substrate which produces a high intensity signal. […]
ENDPOINT_LABEL: Emax

Enquiry: Look up and report Emax, with 5-HT2C receptor (Homo sapiens) as system, for COc1cc(OCc2ccnc(F)c2)c(F)cc1CNC(=O)[C@@H]1CCCN1 [Example 8]
Return: > 70%

Enquiry: Fill: Emax (5-HT2C receptor (Homo sapiens)) for this compound COc1cc(OC2CCCC(C(F)(F)F)C2)c(F)cc1CNC(=O)[C@@H]1CCCN1 (stereo partly drawn) [Example 35]
Return: > 70%

Enquiry: # return Emax of COc1cc(OC2CCC(F)(F)CC2)c(F)cc1CNC(=O)[C@@H]1CCCN1C [Example 40] (system: 5-HT2C receptor (Homo sapiens))
Return: > 70%

Enquiry: Recall the reported Emax of COc1cc(OCC2CCC(F)(F)C2)c(F)cc1CNC(=O)[C@@H]1CCCN1 (stereo partly drawn) [Example 31] when tested on 5-HT2C receptor (Homo sapiens).
Return: > 70%

Enquiry: Report Emax on 5-HT2C receptor (Homo sapiens) for this entry: COc1cc(OCC2CC(F)(F)C2)c(F)cc1CNC(=O)[C@@H]1CCCN1 [Example 29]
Return: > 70%

Enquiry: Report Emax on 5-HT2C receptor (Homo sapiens) for this entry: COc1cc(O[C@H]2CC[C@@H](F)CC2)c(F)cc1CNC(=O)[C@@H]1CCCN1 [Example 16]
Return: > 70%

Enquiry: Retrieve Emax on 5-HT2C receptor (Homo sapiens); query COc1cc(OC(C)C(F)(F)C(F)F)c(F)cc1CNC(=O)[C@@H]1CCCN1 (stereo partly drawn) [Example 22]
Return: > 70%

Enquiry: Enter Emax (test system 5-HT2C receptor (Homo sapiens)) for COc1cc(OCc2ccc(F)cc2)c(F)cc1CNC(=O)[C@@H]1CCCN1 [Example 3]
Return: > 70%

Enquiry: Please report the measured Emax for COc1cc(OCCCC(F)(F)F)c(F)cc1CNC(=O)[C@@H]1CCCN1 [Example 23] tested on 5-HT2C receptor (Homo sapiens).
Return: > 70%

---

EXPERIMENT_DESCRIPTION: Metabolic stability: unbound intrinsic clearance in liver microsomes
Assay type: in vitro ADME
TEST_CONDITIONS: rat; liver microsomes 0.25 mg protein/mL, 0.5 μM compound, pH 7.4, 37° C.; Cl int unbound=Cl int/fu mic; compounds used as acid addition salts; read-out: Cl int, mic unb. (r) (unbound intrinsic clearance)
Experimental: Samples of the tested compounds (0.5 μM) were preincubated together with rat liver microsomes (0.25 mg of microsomal protein/mL) in 0.05 M potassium phosphate buffer of pH 7.4 in microtiter plates at 37° C. for 5 minutes. The reaction was started by adding NADPH (1.0 mM). […] The samples were frozen until analyzed. The remaining concentration of undegraded test substance was determined by liquid chromatography-tandem mass spectrometry (LC-MS/MS). […]
Give measured CLint scaled at 0.5 μM for each item. Keep answers brief.

Enquiry: Give the measured CLint scaled at 0.5 μM for COc1cc(O[C@H]2CC[C@@H](C(F)(F)F)CC2)c(F)cc1CNC(=O)[C@@H]1CCCN1
Return: 80 to 250 L/h/kg

Enquiry: Tell me measured CLint scaled at 0.5 μM for COc1cc(OC2CCC(F)(F)CC2)c(F)cc1CNC(=O)[C@@H]1CCCN1 please.
Return: < 30 L/h/kg

Enquiry: Answer with reported CLint scaled at 0.5 μM of COc1cc(OCC2CCC(F)(F)C2)c(F)cc1CNC(=O)[C@@H]1CCCN1 (stereo partly drawn)
Return: < 30 L/h/kg
